System: monomethylamine-oxidizing enzyme
Test: Substrate specificity and Km of the purified monomethylamine-oxidizing enzyme
Type: biochemical, Bacillus sp. N - 104 (FERM BP-59)
Settings: substrate concentration 10 mM; activity for monomethylamine taken as 100
Entries and their measured Relative activity follow.
Reply numerically in %, unit not repeated.

Example entries and their recorded answers appear below.
CNC ... 0
NCCc1c[nH]cn1 ... 1
NCCO ... 1
NCCN ... 0
CCCN ... 60
CCCCCN ... 19
NCCCCN ... 0
CCCCN ... 18
CC(C)CN ... 2
CN ... 100

Considering NO [Hydroxylamine] , its Relative activity with monomethylamine-oxidizing enzyme was recorded as 0

Log: monomethylamine-oxidizing enzyme, molecule `CCN` , Relative activity = 90

----------
Test system: monomethylamine-oxidizing enzyme
Format: biochemical, Bacillus sp. N - 104 (FERM BP-59)
Details: 1 mM inhibitor, 10 min treatment at 30° C., pH 9; activity without inhibitor taken as 100
Where a name gives a salt, the structure may show the parent alone.
# Residual activity values compiled below

Some compounds with recorded Residual activity:
NNC(N)=O [semicarbazide hydrochloride] ... 0%
NC(=O)CI [iodoacetamide] ... 2.2%
[Cl][Hg][Cl] [HgCl2] ... 0%

Lab note: next compound to report on.
The recorded Residual activity for entry O=C(O)c1cc[c]([Hg][Cl])cc1 [p-chloromercuribenzoic acid] equals 0.7%

----------
Test system: monomethylamine-oxidizing enzyme
Experiment: Substrate specificity and Km of the purified monomethylamine-oxidizing enzyme
Assay type: biochemical, Bacillus sp. N - 104 (FERM BP-59)
Conditions: substrate concentration 10 mM; activity for monomethylamine taken as 100
measureName: Relative activity (%)
Give the quantity in %, number only.

Solved cases below.
NCCc1ccc(O)cc1 [Tyramine] ... 0
N=C(N)NCCCCN [Agmatine] ... 1

Would you kindly look at the next entry?
Relative activity on monomethylamine-oxidizing enzyme for NCc1ccccc1 [Benzylamine] is 1

----------
System: monomethylamine-oxidizing enzyme
Experiment: Substrate specificity and Km of the purified monomethylamine-oxidizing enzyme
Type: biochemical, Bacillus sp. N - 104 (FERM BP-59)
Details: substrate concentration 10 mM; activity for monomethylamine taken as 100
Documented Relative activity across a set of molecules
Unit % implied. Number only.

CN(C)C ... 0
CCCCCCN ... 10
CC(C)N ... 0

Now for the molecule whose Relative activity we want.
For `NCN` the molecule record lists Relative activity as 16
